Entries and their measured log10 INH follow.
Biological target: Snq2p (Saccharomyces cerevisiae (strain Lalvin EC1118 / Prise de mousse)(Baker's yeast))
Test: Inhibition of Saccharomyces cerevisiae MKSNQ2h multidrug transporter Snq2p assessed as concentration required to threefold increase in rate of fluorescence signal relative to absence of inhibitor by fluorescein diacetate based high-throughput screening spectrofluorometric assay
value type: log10 INH (log10 of the value in µM)

compound	study system	value type	endpoint value
CN(C)CCCN1c2ccccc2Sc2ccccc21	Snq2p (Saccharomyces cerevisiae (strain Lalvin EC1118 / Prise de mousse)(Baker's yeast))	log10 INH	2.12
CN(C)CC/C=C1/c2ccccc2Sc2ccc(Cl)cc21	Snq2p (Saccharomyces cerevisiae (strain Lalvin EC1118 / Prise de mousse)(Baker's yeast))	log10 INH	1.34
CN(C)CCCN1c2ccccc2Sc2ccc(Cl)cc21	Snq2p (Saccharomyces cerevisiae (strain Lalvin EC1118 / Prise de mousse)(Baker's yeast))	log10 INH	1.51
CN(C)CCCN1c2ccccc2CCc2ccccc21	Snq2p (Saccharomyces cerevisiae (strain Lalvin EC1118 / Prise de mousse)(Baker's yeast))	log10 INH	2.30
CCSc1ccc2c(c1)N(CCCN1CCN(C)CC1)c1ccccc1S2	Snq2p (Saccharomyces cerevisiae (strain Lalvin EC1118 / Prise de mousse)(Baker's yeast))	log10 INH	0.51
CN1CCN(CCCN2c3ccccc3Sc3ccc(C(F)(F)F)cc32)CC1	Snq2p (Saccharomyces cerevisiae (strain Lalvin EC1118 / Prise de mousse)(Baker's yeast))	log10 INH	0.84
CC(CN1c2ccccc2Sc2ccccc21)N(C)C (stereo not drawn)	Snq2p (Saccharomyces cerevisiae (strain Lalvin EC1118 / Prise de mousse)(Baker's yeast))	log10 INH	2.07
COc1ccc2c(c1)N(C[C@@H](C)CN(C)C)c1ccccc1S2	Snq2p (Saccharomyces cerevisiae (strain Lalvin EC1118 / Prise de mousse)(Baker's yeast))	log10 INH	2.00
NCCCN1c2ccccc2Sc2ccccc21	Snq2p (Saccharomyces cerevisiae (strain Lalvin EC1118 / Prise de mousse)(Baker's yeast))	log10 INH	1.09
NCCCN1c2ccccc2Sc2ccc(Cl)cc21	Snq2p (Saccharomyces cerevisiae (strain Lalvin EC1118 / Prise de mousse)(Baker's yeast))	log10 INH	0.76
COc1ccc2c(c1)N(C[C@H](C)CN(C)C)c1ccccc1S2	Snq2p (Saccharomyces cerevisiae (strain Lalvin EC1118 / Prise de mousse)(Baker's yeast))	log10 INH	2.00
NCCCN1c2ccccc2Sc2ccc(C(F)(F)F)cc21	Snq2p (Saccharomyces cerevisiae (strain Lalvin EC1118 / Prise de mousse)(Baker's yeast))	log10 INH	0.84
CN(C)CCCN1c2ccccc2Sc2ccc(C(F)(F)F)cc21	Snq2p (Saccharomyces cerevisiae (strain Lalvin EC1118 / Prise de mousse)(Baker's yeast))	log10 INH	1.67
NCCCCN1c2ccccc2Sc2ccccc21	Snq2p (Saccharomyces cerevisiae (strain Lalvin EC1118 / Prise de mousse)(Baker's yeast))	log10 INH	1.13
c1ccc2c(c1)Nc1ccccc1S2	Snq2p (Saccharomyces cerevisiae (strain Lalvin EC1118 / Prise de mousse)(Baker's yeast))	log10 INH	1.95
CCN(CC)CCN1c2ccccc2Sc2ccccc21	Snq2p (Saccharomyces cerevisiae (strain Lalvin EC1118 / Prise de mousse)(Baker's yeast))	log10 INH	2.38
NCCCCN1c2ccccc2Sc2ccc(C(F)(F)F)cc21	Snq2p (Saccharomyces cerevisiae (strain Lalvin EC1118 / Prise de mousse)(Baker's yeast))	log10 INH	0.66
OCCN1CCN(CCCN2c3ccccc3Sc3ccc(C(F)(F)F)cc32)CC1	Snq2p (Saccharomyces cerevisiae (strain Lalvin EC1118 / Prise de mousse)(Baker's yeast))	log10 INH	0.94
NCCCCN1c2ccccc2Sc2ccc(Cl)cc21	Snq2p (Saccharomyces cerevisiae (strain Lalvin EC1118 / Prise de mousse)(Baker's yeast))	log10 INH	0.32
OCCN1CCN(CCCN2c3ccccc3Sc3ccc(Cl)cc32)CC1	Snq2p (Saccharomyces cerevisiae (strain Lalvin EC1118 / Prise de mousse)(Baker's yeast))	log10 INH	1.12
CSc1ccc2c(c1)N(CCC1CCCCN1C)c1ccccc1S2 (stereo not drawn)	Snq2p (Saccharomyces cerevisiae (strain Lalvin EC1118 / Prise de mousse)(Baker's yeast))	log10 INH	1.29
CN1CCN(CCCN2c3ccccc3Sc3ccc(Cl)cc32)CC1	Snq2p (Saccharomyces cerevisiae (strain Lalvin EC1118 / Prise de mousse)(Baker's yeast))	log10 INH	0.82
